# system-name: GNAS
# measurement-conditions: ASO; also: test concentration or dose not given here
These antisense oligonucleotides have a phosphorothioate backbone; sugars and methylation of C are not fully specified.
readout-type: remaining target (mRNA or protein) (fraction of control)

**Query** Missing value: remaining target (mRNA or protein) (fraction of control), GNAS, entry "CAGGTGAAATGAGGGTAGCA" . Fill in?
**Result** ≥ 1

====

# system-name: AKT2
# measurement-conditions: ASO
These antisense oligonucleotides have a phosphorothioate backbone; sugars and methylation of C are not fully specified.
Rule: measured remaining target (mRNA or protein) (fraction of control) below 0.2 gets True; anything equal to or greater than 0.2 gets False.

seq-text: GATGGACTGGGCGGTAAA
system-name: AKT2
qualitative-label: False
--
seq-text: TGTGGAGCCAGCCTTCTT
system-name: AKT2
qualitative-label: False
--
seq-text: GCCTTGCTGACCGCCACT
system-name: AKT2
qualitative-label: True

**Query** Please let me know if "TGGACAGGGCACAGTCTC" shows remaining target (mRNA or protein) (fraction of control) below 0.2.
**Result** False

**Query** Please let me know if "ACTGTGTGAGCGACTTCA" shows remaining target (mRNA or protein) (fraction of control) below 0.2.
**Result** False

**Query** Please let me know if "CCGCATCCACTCCTCCCT" shows remaining target (mRNA or protein) (fraction of control) below 0.2.
**Result** True

**Query** Please let me know if "CTCCTTGGCATCGCTGGG" shows remaining target (mRNA or protein) (fraction of control) below 0.2.
**Result** False

**Query** Please let me know if "CGTGCGTCCTCTGCGTGG" shows remaining target (mRNA or protein) (fraction of control) below 0.2.
**Result** True

**Query** Please let me know if "GAGCCACACTTGTAGTCC" shows remaining target (mRNA or protein) (fraction of control) below 0.2.
**Result** True

**Query** Please let me know if "TTCCATCTCCTCAGTCGT" shows remaining target (mRNA or protein) (fraction of control) below 0.2.
**Result** True

**Query** Please let me know if "GGGTGCCTGGTGTTCTGG" shows remaining target (mRNA or protein) (fraction of control) below 0.2.
**Result** False

====

# system-name: ETS2
# measurement-conditions: ASO
These antisense oligonucleotides have a phosphorothioate backbone; sugars and methylation of C are not fully specified.
remaining target (mRNA or protein) (fraction of control) values for the sequences below.

seq-text: AATAGTCTGTGTGTGTCC
system-name: ETS2
observed-value: ≥ 1

**Query** Any idea what its remaining target (mRNA or protein) (fraction of control) is? The sequence is "CATGGTTGTTTCCTTCCC"
**Result** ≥ 1

**Query** Any idea what its remaining target (mRNA or protein) (fraction of control) is? The sequence is "TTTCCTCTTTCCCCACCG"
**Result** ≥ 1

**Query** Any idea what its remaining target (mRNA or protein) (fraction of control) is? The sequence is "CCAGAGACGATCAGGGAG"
**Result** ≥ 1

**Query** Any idea what its remaining target (mRNA or protein) (fraction of control) is? The sequence is "CGTCCCACGGACTGCCAG"
**Result** ≥ 1

**Query** Any idea what its remaining target (mRNA or protein) (fraction of control) is? The sequence is "GGCCACTTTCCTGGACAT"
**Result** ≥ 1

====

# measurement-conditions: ASO
These antisense oligonucleotides have a phosphorothioate backbone; sugars and methylation of C are not fully specified.
remaining target (mRNA or protein) (fraction of control) values for the sequences below.

seq-text: CCGTGGATGATCCGCATC
observed-value: ≥ 1
--
seq-text: AGGTGACACGCCCGGAGA
observed-value: ≥ 1
--
seq-text: ACCACAGAACTGAAGGTT
observed-value: ≥ 1
--
seq-text: GCTTGAGTGCTGGGAACA
observed-value: ≥ 1
--
seq-text: TGATTTCTTCACCTTTTC
observed-value: ≥ 1

**Query** Any idea what its remaining target (mRNA or protein) (fraction of control) is? The sequence is "AAAGCCATAGCCAGTTGC"
**Result** ≥ 1

**Query** Any idea what its remaining target (mRNA or protein) (fraction of control) is? The sequence is "CCACCACTACAGAGCAGG"
**Result** ≥ 1

**Query** Any idea what its remaining target (mRNA or protein) (fraction of control) is? The sequence is "CCCGCACGTCCTTGAAGA"
**Result** 0.27

**Query** Any idea what its remaining target (mRNA or protein) (fraction of control) is? The sequence is "GTTCCAGGATAGTCCCAA"
**Result** 0.34

**Query** Any idea what its remaining target (mRNA or protein) (fraction of control) is? The sequence is "TGCATAAGAGGCCACAGCAG"
**Result** 0.44

**Query** Any idea what its remaining target (mRNA or protein) (fraction of control) is? The sequence is "CAGCACCCCAACCCTTAACA"
**Result** 0.47

**Query** Any idea what its remaining target (mRNA or protein) (fraction of control) is? The sequence is "ATTGGTCTCTCGTCTTTC"
**Result** ≥ 1

**Query** Any idea what its remaining target (mRNA or protein) (fraction of control) is? The sequence is "TGTTAAGACACTGAAGAAAT"
**Result** ≥ 1

====

remaining target (mRNA or protein) (fraction of control) values for the sequences below.
# system-name: SMAD3
# measurement-conditions: ASO
These antisense oligonucleotides have a phosphorothioate backbone; sugars and methylation of C are not fully specified.

In the examples that follow, each entry is paired with its recorded remaining target (mRNA or protein) (fraction of control).
seq-text: CCCCTACCATACTTGATG
system-name: SMAD3
observed-value: 0.38

seq-text: AGAACTGGTGTCTCTACT
system-name: SMAD3
observed-value: 0.51

seq-text: TGCATCGTGCGGGCTCTT
system-name: SMAD3
observed-value: 0.43

**Query** Missing value: remaining target (mRNA or protein) (fraction of control), SMAD3, entry "GCGAGGCGTGGAATGTCT" . Fill in?
**Result** 0.54

**Query** Missing value: remaining target (mRNA or protein) (fraction of control), SMAD3, entry "GGAGGGCGTGCGGGCGGC" . Fill in?
**Result** ≥ 1

====

# system-name: RIPK1
# measurement-conditions: ASO
These antisense oligonucleotides have a phosphorothioate backbone; sugars and methylation of C are not fully specified.
readout-type: remaining target (mRNA or protein) (fraction of control)
No unit in the answer, only the number.

In the examples that follow, each entry is paired with its recorded remaining target (mRNA or protein) (fraction of control).
seq-text: GGATCCAGTGGTCTTGTT
observed-value: 0.84

seq-text: CCCTGGGTTCTGTGGAAA
observed-value: 0.7

seq-text: TATGGCTCCTTATTTGCA
observed-value: 0.78

seq-text: GTGCCTTTTCCCTCTGTA
observed-value: 0.84

seq-text: AGTCTGTTCATCATCTTC
observed-value: 0.96

**Query** Any idea what its remaining target (mRNA or protein) (fraction of control) is? The sequence is "ACATCTGGCCTGTTCCCA"
**Result** 0.56

**Query** Any idea what its remaining target (mRNA or protein) (fraction of control) is? The sequence is "ATTCGCTTCCCAGCAGAG"
**Result** 0.7

**Query** Any idea what its remaining target (mRNA or protein) (fraction of control) is? The sequence is "TTTCCCCATTCTCCAGCT"
**Result** 0.85

**Query** Any idea what its remaining target (mRNA or protein) (fraction of control) is? The sequence is "CTCTATGATGACGCCCAG"
**Result** 0.69

**Query** Any idea what its remaining target (mRNA or protein) (fraction of control) is? The sequence is "CAGTGCTTTCCCAGATTT"
**Result** 0.94

====

# system-name: TNFRSF1A
# measurement-conditions: ASO
These antisense oligonucleotides have a phosphorothioate backbone; sugars and methylation of C are not fully specified.
remaining target (mRNA or protein) (fraction of control) values for the sequences below.
No unit in the answer, only the number.

In the examples that follow, each entry is paired with its recorded remaining target (mRNA or protein) (fraction of control).
seq-text: CCGTTGGTAGCGATACAT
observed-value: 0.7

seq-text: TCCCCTCCTCTCTGCTTT
observed-value: 0.95

seq-text: TCTTCTCCCTGTCCCCTA
observed-value: 0.87

seq-text: AAAGGCAAAGACCAAAGA
observed-value: 0.69

seq-text: TCGATTTCCCACAAACAA
observed-value: 0.99

seq-text: GCTTGTCCAGGCAGAGGG
observed-value: 0.82

seq-text: AGCCGCTCTCACACTCCC
observed-value: 0.64

seq-text: CAAAGACCAAAGAAAATG
observed-value: 0.71

seq-text: CTCAGGGCAGTGTGGCAG
observed-value: 0.39

// next entry
**Query** Any idea what its remaining target (mRNA or protein) (fraction of control) is? The sequence is "GGTTTTCTGAAGCGGTGA"
**Result** 0.83
